Data provenance: paper PMC11204085

target.under.test: R24A mutant of AgifCSP5 (Aphidius gifuensis, UniProt A0A3Q9ELG9, R44A)
Sequence (A0A3Q9ELG9 entry or part of it R44A): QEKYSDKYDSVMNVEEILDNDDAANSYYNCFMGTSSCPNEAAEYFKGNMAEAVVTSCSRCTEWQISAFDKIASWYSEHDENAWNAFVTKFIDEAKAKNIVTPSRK
experimental.details: Fluorescence competitive binding assay, R24A mutant
metric: Kd (µM)
Please reply with the bare figure in µM and do not write the unit itself.

Reported Kd for c1ccc(Nc2cccc3ccccc23)cc1 [1-NPN, N-phenyl-1-naphthylamine, reference compound] was 14.4

====

target.under.test: AgifCSP5 (Aphidius gifuensis)
Sequence (A0A3Q9ELG9 entry or part of it): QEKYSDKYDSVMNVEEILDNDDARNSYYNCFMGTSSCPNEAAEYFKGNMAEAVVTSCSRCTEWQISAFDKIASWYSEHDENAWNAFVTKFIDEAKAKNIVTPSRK
experimental.details: Fluorescence competitive binding assay with 1-NPN probe, wild-type AgifCSP5
applied.conditions: wild-type AgifCSP5, 1-NPN displacement, pH 7.4; read-out: IC50
metric: pIC50
Note on pIC50: it is the negative log10 of concentration, concentration in mol/L.

Reported pIC50 for C=CC(=C)CC/C=C(\C)CCC=C(C)C [(E)-β-Farnesene] was 4.59

Reported pIC50 for C=C/C(C)=C\CC=C(C)C [(Z)-β-ocimene] was 4.75

Reported pIC50 for C=C(C)[C@@H]1CC=C(C)CC1 [(S)-(−)-Limonene] was 4.55

Reported pIC50 for CC1=COC(=O)C2C(C)CCC12 (stereo not shown) was 4.47

Reported pIC50 for C=C(C)[C@H]1CC=C(C)CC1 [(R)-(+)-Limonene] was 4.60

Reported pIC50 for CC1=CCC(C(C)(C)O)CC1 (stereo not drawn) [(+)-α-Terpineol] was 4.53

Reported pIC50 for "CC/C=C\CCO" was 4.56
